- assayRemarks: Aqueous solubility of the compound in phosphate buffer at pH 7.4
- Format: physicochemical
Could you label it yes (1) if measured solubility is 2000 µg/mL or higher, and no (0) otherwise?

Q) Evaluate "C[C@@H](N1CCc2nc(-c3ccccc3)sc2C1)[C@](O)(Cn1cncn1)c1ccc(F)cc1F" : solubility at minimum 2000 µg/mL?
A) no (0)

Q) Another: "C[C@@H](N1CCc2nc(-c3cccnc3)sc2C1)[C@](O)(Cn1cncn1)c1ccc(F)cc1F"
A) yes (1)

Q) Another: "C[C@@H](N1CCn2nc(-c3cccnc3)nc2C1)[C@](O)(Cn1cncn1)c1ccc(F)cc1F"
A) no (0)

Q) Another: "Br.C[C@@H](N1CCc2nc(-c3cncnc3)sc2C1)[C@](O)(Cn1cncn1)c1ccc(F)cc1F"
A) yes (1)

Q) Another: "C[C@@H](c1ncncc1F)[C@](O)(Cn1cncn1)c1ccc(F)cc1F"
A) no (0)

Q) Another: "C[C@@H](N1CCc2nc(-c3cncnc3)sc2C1)[C@](O)(Cn1cncn1)c1ccc(F)cc1F"
A) yes (1)

Q) Another: "C[C@@H](N1CCn2nc(-c3ccccc3)nc2C1)[C@](O)(Cn1cncn1)c1ccc(F)cc1F"
A) no (0)

Q) Another: "CS(=O)(=O)O.C[C@@H](N1CCc2nc(-c3cncnc3)sc2C1)[C@](O)(Cn1cncn1)c1ccc(F)cc1F"
A) yes (1)

Q) Another: "C[C@@H](N1CCc2nc(-c3cncnc3)sc2C1)[C@](O)(Cn1cncn1)c1ccc(F)cc1F.Cl"
A) yes (1)

The measured values listed here are drawn from ChEMBL document CHEMBL3259614.
